- Tested on: Mus musculus
- Test Protocol: Effect on bodyweight in po dosed C57BL/6J ob/ob mouse assessed as body weight gain relative to untreated control
- Type: functional
So I've got a bunch of compounds here, and I need their Activity values.
Numbers only here, please. The scale is %.

For reference, reported Activity for `CO/N=C(\c1ccccc1)c1ccc2c(c1)C(C)(C)CCN2CCOc1ccc(C[C@H](OCC(F)(F)F)C(=O)O)cc1` stands at 304

For reference, reported Activity for `CCO[C@@H](Cc1ccc(OCCN2CCC(C)(C)c3cc(/C(=N/OCc4ccccc4)c4ccccc4)ccc32)cc1)C(=O)O` stands at 0.23

For reference, reported Activity for `CCO[C@@H](Cc1ccc(OCCN2CCC(C)(C)c3cc(/C(=N/OC)c4ccccc4)ccc32)cc1)C(=O)O` stands at -33

For reference, reported Activity for `CCO[C@@H](Cc1ccc(OCCN2CCC(C)(C)c3cc(/C(=N/OCC4CC4)c4ccccc4)ccc32)cc1)C(=O)O` stands at 107

For reference, reported Activity for CN(CCOc1ccc(CC2SC(=O)NC2=O)cc1)c1ccccn1 (stereo unspecified) stands at 0.56

For reference, reported Activity for `CCO[C@@H](Cc1ccc(OCCc2ccc(OS(C)(=O)=O)cc2)cc1)C(=O)O` stands at 1.9

----------
- Tested on: Liver microsomes
- Test Protocol: Metabolic stability in rat hepatocyte microsomes
- Format: ADME, Microsome
So I've got a bunch of compounds here, and I need their Stability values.

For reference, reported Stability for `C=CCO/N=C(\c1ccccc1)c1ccc2c(c1)C(C)(C)CCN2CCOc1ccc(C[C@H](OCC)C(=O)O)cc1` stands at 20%

For reference, reported Stability for `CCO[C@@H](Cc1ccc(OCCc2ccc(OS(C)(=O)=O)cc2)cc1)C(=O)O` stands at 97%

For reference, reported Stability for `CCO[C@@H](Cc1ccc(OCCN2CCC(C)(C)c3cc(/C(=N/OC)c4ccccc4)ccc32)cc1)C(=O)O` stands at 0%

For reference, reported Stability for CN(CCOc1ccc(CC2SC(=O)NC2=O)cc1)c1ccccn1 (configuration not stated) stands at 45%

For reference, reported Stability for `CCO[C@@H](Cc1ccc(OCCN2CCC(C)(C)c3cc(/C(=N/OCC4CC4)c4ccccc4)ccc32)cc1)C(=O)O` stands at 32%

For reference, reported Stability for `CCO[C@@H](Cc1ccc(OCCN2CCC(C)(C)c3cc(/C(=N/OCc4ccccc4)c4ccccc4)ccc32)cc1)C(=O)O` stands at 35%

For reference, reported Stability for `CO/N=C(\c1ccccc1)c1ccc2c(c1)C(C)(C)CCN2CCOc1ccc(C[C@H](OCC(F)(F)F)C(=O)O)cc1` stands at 18%

----------
- Tested Target: Peroxisome proliferator-activated receptor alpha (Homo sapiens) (UniProt Q07869)
- Sequence (Q07869 whole entry, the tested form may be a part): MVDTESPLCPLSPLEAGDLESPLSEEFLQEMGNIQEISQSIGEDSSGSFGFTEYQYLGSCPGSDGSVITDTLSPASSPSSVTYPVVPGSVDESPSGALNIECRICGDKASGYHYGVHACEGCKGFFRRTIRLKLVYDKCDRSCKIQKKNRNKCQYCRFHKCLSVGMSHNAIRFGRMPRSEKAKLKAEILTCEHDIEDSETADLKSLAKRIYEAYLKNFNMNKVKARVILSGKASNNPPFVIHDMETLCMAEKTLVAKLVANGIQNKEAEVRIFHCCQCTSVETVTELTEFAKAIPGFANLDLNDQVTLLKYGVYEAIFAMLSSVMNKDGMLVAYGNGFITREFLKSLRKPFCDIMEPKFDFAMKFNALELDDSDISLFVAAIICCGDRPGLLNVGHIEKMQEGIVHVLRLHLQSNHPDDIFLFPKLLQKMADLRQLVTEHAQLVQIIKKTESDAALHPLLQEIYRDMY
- Test Protocol: Agonist activity at human PPARalpha at transactivation EC50 by Gal4 transactivation assay relative to at 10 uM WY-14643
So I've got a bunch of compounds here, and I need their Activity values.
Remember to put the unit after the number in your answer.

Sample `C=CCO/N=C(\c1ccccc1)c1ccc2c(c1)C(C)(C)CCN2CCOc1ccc(C[C@H](OCC)C(=O)O)cc1` , system: Peroxisome proliferator-activated receptor alpha (Homo sapiens) (UniProt Q07869). Its Activity is 152%

Sample `CCO[C@@H](Cc1ccc(OCCN2CCC(C)(C)c3cc(/C(=N/OCc4ccccc4)c4ccccc4)ccc32)cc1)C(=O)O` , system: Peroxisome proliferator-activated receptor alpha (Homo sapiens) (UniProt Q07869). Its Activity is 137%

Sample `CO/N=C(\c1ccccc1)c1ccc2c(c1)C(C)(C)CCN2CCOc1ccc(C[C@H](Nc2ccccc2C(=O)c2ccccc2)C(=O)O)cc1` , system: Peroxisome proliferator-activated receptor alpha (Homo sapiens) (UniProt Q07869). Its Activity is 11%

Sample `CO/N=C(\c1ccccc1)c1ccc2c(c1)C(C)(C)CCN2CCOc1ccc(C[C@H](OCC(F)(F)F)C(=O)O)cc1` , system: Peroxisome proliferator-activated receptor alpha (Homo sapiens) (UniProt Q07869). Its Activity is 50%

Sample `CCO[C@@H](Cc1ccc(OCCN2CCC(C)(C)c3cc(/C(=N/OCC4CC4)c4ccccc4)ccc32)cc1)C(=O)O` , system: Peroxisome proliferator-activated receptor alpha (Homo sapiens) (UniProt Q07869). Its Activity is 145%

----------
- Test system: Mus musculus
- Test Protocol: Glucose lowering effect in po dosed C57BL/6J ob/ob mouse assessed as insulin level relative to untreated control
- Type: functional
# cutoff -20% applies to Activity; >= gives Fulfilled, < gives Not fulfilled

[Q] Tell me whether Activity is at least -20% here: `CCO[C@@H](Cc1ccc(OCCN2CCC(C)(C)c3cc(/C(=N/OCc4ccccc4)c4ccccc4)ccc32)cc1)C(=O)O`
[A] Fulfilled

[Q] Tell me whether Activity is at least -20% here: `CO/N=C(\c1ccccc1)c1ccc2c(c1)C(C)(C)CCN2CCOc1ccc(C[C@H](OCC(F)(F)F)C(=O)O)cc1`
[A] Fulfilled

[Q] Tell me whether Activity is at least -20% here: CCO[C@@H](Cc1ccc(OCCc2ccc(OS(C)(=O)=O)cc2)cc1)C(=O)O [TESAGLITAZAR]
[A] Not fulfilled

[Q] Tell me whether Activity is at least -20% here: `CCO[C@@H](Cc1ccc(OCCN2CCC(C)(C)c3cc(/C(=N/OCC4CC4)c4ccccc4)ccc32)cc1)C(=O)O`
[A] Fulfilled

[Q] Tell me whether Activity is at least -20% here: CN(CCOc1ccc(CC2SC(=O)NC2=O)cc1)c1ccccn1 (stereo unspecified) [ROSIGLITAZONE]
[A] Not fulfilled

----------
- System: Caco-2
- Test Protocol: Absorption in human Caco-2 cells
- Format: ADME, cell-based
- Parameters: concentration or dose not given beside the values
So I've got a bunch of compounds here, and I need their Activity values.
Numbers only here, please. The scale is %.

For reference, reported Activity for `CCO[C@@H](Cc1ccc(OCCN2CCC(C)(C)c3cc(/C(=N/OCc4ccccc4)c4ccccc4)ccc32)cc1)C(=O)O` stands at 90

For reference, reported Activity for CCO[C@@H](Cc1ccc(OCCc2ccc(OS(C)(=O)=O)cc2)cc1)C(=O)O [TESAGLITAZAR] stands at 78

For reference, reported Activity for `C=CCO/N=C(\c1ccccc1)c1ccc2c(c1)C(C)(C)CCN2CCOc1ccc(C[C@H](OCC)C(=O)O)cc1` stands at 95

For reference, reported Activity for CN(CCOc1ccc(CC2SC(=O)NC2=O)cc1)c1ccccn1 (stereo unspecified) [ROSIGLITAZONE] stands at 100

For reference, reported Activity for `CCO[C@@H](Cc1ccc(OCCN2CCC(C)(C)c3cc(/C(=N/OC)c4ccccc4)ccc32)cc1)C(=O)O` stands at 100

For reference, reported Activity for `CCO[C@@H](Cc1ccc(OCCN2CCC(C)(C)c3cc(/C(=N/OCC4CC4)c4ccccc4)ccc32)cc1)C(=O)O` stands at 93
